# Tested system: wild type PKR (Homo sapiens)
# Sequence (P30613 whole entry): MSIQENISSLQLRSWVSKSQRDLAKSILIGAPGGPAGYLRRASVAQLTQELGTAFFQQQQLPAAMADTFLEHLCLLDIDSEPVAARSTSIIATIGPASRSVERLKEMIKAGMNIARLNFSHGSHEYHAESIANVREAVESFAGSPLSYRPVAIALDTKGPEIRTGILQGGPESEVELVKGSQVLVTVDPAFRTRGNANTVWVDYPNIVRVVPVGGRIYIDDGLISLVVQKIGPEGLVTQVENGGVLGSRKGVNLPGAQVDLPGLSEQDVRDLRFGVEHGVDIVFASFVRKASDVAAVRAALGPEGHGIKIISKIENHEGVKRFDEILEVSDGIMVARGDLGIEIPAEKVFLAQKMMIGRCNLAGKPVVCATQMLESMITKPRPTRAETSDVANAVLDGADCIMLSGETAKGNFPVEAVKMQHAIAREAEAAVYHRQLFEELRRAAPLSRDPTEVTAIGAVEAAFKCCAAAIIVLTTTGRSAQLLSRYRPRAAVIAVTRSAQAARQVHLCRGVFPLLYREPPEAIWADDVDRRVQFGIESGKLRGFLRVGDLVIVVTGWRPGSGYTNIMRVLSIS
# Protocol description: PKR mutant assay (AC50), wild type PKR
# Format: biochemical
# Settings: wild type PKR enzyme; read-out: PKR WT AC50
Endpoint name: AC50

Cn1c2nc(Cc3c[nH]nn3)sc2c2cnn(Cc3csc(N)n3)c(=O)c21 < 0.3 µM

AC50 value, target or system wild type PKR (Homo sapiens), for `Cn1c2nc(Cc3n[nH]cc3F)sc2c2cnn(Cc3n[nH]cc3N)c(=O)c21` : < 0.3 µM

AC50 value, target or system wild type PKR (Homo sapiens), for `Cn1ncc(Cn2ncc3c4sc(Cc5cc[nH]n5)nc4n(C)c3c2=O)n1` : < 0.3 µM

AC50 value, target or system wild type PKR (Homo sapiens), for `Cn1c2nc(Cc3cc[nH]n3)sc2c2cnn(Cc3cccc(C(N)=O)n3)c(=O)c21` : < 0.3 µM

AC50 value, target or system wild type PKR (Homo sapiens), for `Cn1cc(CC(N)=O)c(Cn2ncc3c4sc(Cc5cc[nH]n5)nc4n(C)c3c2=O)n1` : > 0.8 µM

AC50 value, target or system wild type PKR (Homo sapiens), for `Cn1c2nc(Cc3cc[nH]n3)sc2c2cnn(Cc3n[nH]c(=O)[nH]3)c(=O)c21` : > 0.8 µM

====

# Tested system: PKR R510Q (Homo sapiens, UniProt P30613, R510Q)
# Sequence (P30613 whole entry R510Q): as the sequence (P30613 whole entry) above, with R510Q counted along it
# Protocol description: PKR mutant assay (AC50), PKR R510Q
# Type: biochemical
# Settings: PKR R510Q mutant enzyme; read-out: PK R510Q AC50
Endpoint name: AC50

Consider the following illustrative entries.
Cn1c2nc(Cc3ncsc3F)sc2c2cnn(Cc3cc[nH]n3)c(=O)c21 < 300 nM
Cn1c2nc(Cc3cc[nH]n3)sc2c2cnn(Cc3ccc(C#N)cn3)c(=O)c21 < 300 nM
Cn1c2nc(Cc3ccccn3)sc2c2cnn(Cc3ccccn3)c(=O)c21 301 to 800 nM

Record summary for `Cn1c2nc(Cc3cc[nH]n3)sc2c2cnn(Cc3n[nH]cc3C#N)c(=O)c21` : reported AC50 = < 300 nM

Record summary for `Cn1cc(C(=O)O)c(Cn2ncc3c4sc(Cc5cc[nH]n5)nc4n(C)c3c2=O)n1` : reported AC50 = > 800 nM

Record summary for `Cn1ccc(Cn2ncc3c4sc(Cc5cccc(N)n5)nc4n(C)c3c2=O)n1` : reported AC50 = < 300 nM

====

# Tested system: PKR R510Q (Homo sapiens, UniProt P30613, R510Q)
# Protocol description: PKR mutant assay (AC50), PKR R510Q
# Type: biochemical
# Settings: PKR R510Q mutant enzyme; read-out: PK R510Q AC50
Each item that follows carries a reported AC50.

Cn1c2nc(Cc3n[nH]cc3F)sc2c2cnn(Cc3n[nH]cc3F)c(=O)c21 < 300 nM

Record summary for `CC(=O)Nc1ccc(F)c(Cn2ncc3c4sc(Cc5cnn(C)c5)nc4n(C)c3c2=O)n1` : reported AC50 = > 800 nM

Record summary for `Cc1cn(C)nc1Cn1ncc2c3sc(Cc4cc[nH]n4)nc3n(C)c2c1=O` : reported AC50 = < 300 nM

Record summary for `Cn1c2nc(Cc3cc[nH]n3)sc2c2cnn(Cc3ncns3)c(=O)c21` : reported AC50 = < 300 nM

====

# Tested system: PKR K410E (Homo sapiens, UniProt P30613, K410E)
# Sequence (P30613 whole entry K410E): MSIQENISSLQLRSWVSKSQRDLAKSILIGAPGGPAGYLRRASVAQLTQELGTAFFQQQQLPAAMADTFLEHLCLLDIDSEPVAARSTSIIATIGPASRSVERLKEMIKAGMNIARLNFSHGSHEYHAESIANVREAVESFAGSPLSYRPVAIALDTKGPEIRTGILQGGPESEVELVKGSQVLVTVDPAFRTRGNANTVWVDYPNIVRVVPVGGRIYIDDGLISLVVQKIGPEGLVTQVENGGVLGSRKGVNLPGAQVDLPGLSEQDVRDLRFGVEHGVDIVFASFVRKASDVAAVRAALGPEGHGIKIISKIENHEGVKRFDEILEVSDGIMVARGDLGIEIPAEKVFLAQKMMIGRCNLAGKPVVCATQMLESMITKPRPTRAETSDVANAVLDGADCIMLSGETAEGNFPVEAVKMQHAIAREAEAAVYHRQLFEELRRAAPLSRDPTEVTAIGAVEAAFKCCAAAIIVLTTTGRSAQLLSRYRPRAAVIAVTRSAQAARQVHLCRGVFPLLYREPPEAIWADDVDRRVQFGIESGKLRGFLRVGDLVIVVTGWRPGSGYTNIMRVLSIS
# Protocol description: PKR mutant assay (AC50), PKR K410E
# Format: biochemical
# Settings: PKR K410E mutant enzyme
Endpoint name: AC50

Consider the following illustrative entries.
Cn1c2nc(Cn3ccnc3)sc2c2cnn(Cc3ccnc(N)n3)c(=O)c21 > 800 nM
Cn1c2nc(Cc3cc[nH]n3)sc2c2cnn(Cc3ccn[nH]3)c(=O)c21 < 300 nM
Cn1c2nc(Cc3cc[nH]n3)sc2c2cnn(Cc3n[nH]cc3OC(F)(F)F)c(=O)c21 301 to 800 nM
Cn1c2nc(Cc3c[nH]nn3)sc2c2cnn(Cc3cc[nH]n3)c(=O)c21 < 300 nM

AC50 value, target or system PKR K410E (Homo sapiens, UniProt P30613, K410E), for `Cn1c2nc(Cc3cc[nH]n3)sc2c2cnn(Cc3ccc(F)c(N)n3)c(=O)c21` : < 300 nM

====

Each item that follows carries a reported AC50.
# Tested system: PKR K410E (Homo sapiens, UniProt P30613, K410E)
# Protocol description: PKR mutant assay (AC50), PKR K410E
# Type: biochemical
# Settings: PKR K410E mutant enzyme

Consider the following illustrative entries.
Compound	AC50
COCc1cn(C)nc1Cn1ncc2c3sc(Cc4cc[nH]n4)nc3n(C)c2c1=O	> 0.8 µM
Cn1cc(C#N)c(Cn2ncc3c4sc(Cc5cc[nH]n5)nc4n(C)c3c2=O)n1	< 0.3 µM
CC(=O)Nc1ccc(F)c(Cn2ncc3c4sc(Cc5cnn(C)c5)nc4n(C)c3c2=O)n1	> 0.8 µM
CC(=O)Nc1ccc(F)c(Cn2ncc3c4sc(Cc5cc[nH]n5)nc4n(C)c3c2=O)n1	> 0.8 µM
Cn1ncc(Cn2ncc3c4sc(Cc5cc[nH]n5)nc4n(C)c3c2=O)n1	< 0.3 µM
Cn1c2nc(Cc3cc[nH]n3)sc2c2cnn(Cc3cnc(N)s3)c(=O)c21	< 0.3 µM

AC50 value, target or system PKR K410E (Homo sapiens, UniProt P30613, K410E), for `Cn1c2nc(Cc3cc[nH]n3)sc2c2cnn(Cc3cccc(N)n3)c(=O)c21` : < 0.3 µM

AC50 value, target or system PKR K410E (Homo sapiens, UniProt P30613, K410E), for `Cn1c2nc(Cc3cc[nH]n3)sc2c2cnn(Cc3[nH]ncc3Cl)c(=O)c21` : < 0.3 µM

AC50 value, target or system PKR K410E (Homo sapiens, UniProt P30613, K410E), for `Cn1c2nc(Cc3cc[nH]n3)sc2c2cnn(Cc3c[nH]cn3)c(=O)c21` : < 0.3 µM

AC50 value, target or system PKR K410E (Homo sapiens, UniProt P30613, K410E), for `Cn1c2nc(Cc3cc[nH]n3)sc2c2cnn(Cc3nc(C(N)=O)cs3)c(=O)c21` : < 0.3 µM

====

Each item that follows carries a reported AC50.
# Tested system: wild type PKR (Homo sapiens)
# Protocol description: Cell based ATP assay in purified red blood cells
# Parameters: endogenous in cells; host or cells: purified red blood cells from blood of healthy volunteers
# Settings: RBCs, overnight at 37° C., ATP levels by Cell-Titer-Glo

Consider the following illustrative entries.
Cn1cc(C(N)=O)c(Cn2ncc3c4sc(Cc5cc[nH]n5)nc4n(C)c3c2=O)n1 > 1000 nM
CC(=O)Nc1ccc(F)c(Cn2ncc3c4sc(Cn5ccnc5)nc4n(C)c3c2=O)c1 > 1000 nM
Cc1cn(C)nc1Cn1ncc2c3sc(Cc4cc[nH]n4)nc3n(C)c2c1=O ≤ 1000 nM
Cn1c2nc(Cc3n[nH]cc3F)sc2c2cnn(Cc3nc(N)ccc3F)c(=O)c21 ≤ 1000 nM
Cn1c2nc(Cc3cc[nH]n3)sc2c2cnn(Cc3csc(N)n3)c(=O)c21 ≤ 1000 nM
Cn1c2nc(C(=O)c3cc[nH]n3)sc2c2cnn(Cc3cccc(N)n3)c(=O)c21 ≤ 1000 nM

Next item in the queue.
AC50 value, target or system wild type PKR (Homo sapiens), for `Cn1c2nc(Cn3ccnn3)sc2c2cnn(Cc3cc[nH]n3)c(=O)c21` : ≤ 1000 nM

====

# Tested system: PKR K410E (Homo sapiens, UniProt P30613, K410E)
# Protocol description: PKR mutant assay (AC50), PKR K410E
# Type: biochemical
# Settings: PKR K410E mutant enzyme
Endpoint name: AC50

Molecule	Tested system	AC50
COc1ncccc1Cn1ncc2c3sc(Cc4cc[nH]n4)nc3n(C)c2c1=O	PKR K410E (Homo sapiens, UniProt P30613, K410E)	< 300 nM

Record summary for `Cn1c2nc(Cc3cc[nH]n3)sc2c2cnn(Cc3ccc(C(N)=O)cn3)c(=O)c21` : reported AC50 = < 300 nM

Record summary for CCOC(c1cscn1)c1nc2c(s1)c1cnn(Cc3c[nH]nn3)c(=O)c1n2C (stereo not shown) : reported AC50 = > 800 nM

Record summary for `Cn1c2nc(Cc3c[nH]nn3)sc2c2cnn(Cc3csc(N)n3)c(=O)c21` : reported AC50 = < 300 nM
